target: MAP kinase-interacting serine/threonine-protein kinase 2 (Homo sapiens); conditions: at 1 µM
Description: GSK_PKIS: MNK2 mean inhibition at 1 uM [Nanosyn]
# label = true if inhibition >= 7% else false

Solved cases (3 shown):
>  <Compound string>
NC(=O)c1ccc(-c2nc(-c3ccccn3)c(-c3ccc4c(c3)OCO4)[nH]2)cc1

>  <Classification>
false

$$$$
>  <Compound string>
CS(=O)(=O)CCNCc1ccc(-c2ccc3ncnc(Nc4ccc(OCc5cccc(F)c5)c(C(F)(F)F)c4)c3c2)o1

>  <Classification>
true

$$$$
>  <Compound string>
CCn1c(-c2nonc2N)nc2c(C#CC(C)(C)O)nc(OC[C@@H](N)c3ccccc3)cc21

>  <Classification>
false

$$$$

Request: Exam item: decide whether the reported inhibition for O=C1NC(=O)C(c2cccc(Cl)c2)=C1Nc1ccc(O)c(Cl)c1 is at least 7%.
Response: false

Request: Exam item: decide whether the reported inhibition for CCc1cccc(NC(=O)Nc2ccc(Oc3ccc4nc(NC(=O)OC)[nH]c4c3)cc2)c1 is at least 7%.
Response: true

Request: Exam item: decide whether the reported inhibition for CC(C)=Cc1cccc2c1/C(=N/Nc1ccc(S(N)(=O)=O)cc1)C(=O)N2 is at least 7%.
Response: false

Request: Exam item: decide whether the reported inhibition for COc1ccc(-c2nn3ncccc3c2-c2ccnc(Nc3ccc(Cl)c(C(F)(F)F)c3)n2)cc1 is at least 7%.
Response: false

Request: Exam item: decide whether the reported inhibition for Nc1ncnc2occ(-c3ccc(NC(=O)Nc4cc(C(F)(F)F)cc(C(F)(F)F)c4)cc3)c12 is at least 7%.
Response: true

Request: Exam item: decide whether the reported inhibition for COc1cc2ncn(-c3cc(OCc4ccccc4Cl)c(C(N)=O)s3)c2cc1OC is at least 7%.
Response: true

Data origin: ChEMBL document CHEMBL1961873
